Listed here are compounds together with their documented remaining activity at 3 µM.
tested_system: C. elegans (N2) complex I (NADH:ubiquinone oxidoreductase) (Caenorhabditis elegans, UniProt P24887+Q93873+Q94360)
Sequence (Q94360 17-199): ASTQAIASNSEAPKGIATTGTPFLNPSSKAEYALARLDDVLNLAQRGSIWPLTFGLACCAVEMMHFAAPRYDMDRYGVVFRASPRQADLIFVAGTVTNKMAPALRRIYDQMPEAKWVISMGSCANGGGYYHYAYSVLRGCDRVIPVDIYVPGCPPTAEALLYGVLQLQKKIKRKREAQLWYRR
Sequence (P24887 whole entry): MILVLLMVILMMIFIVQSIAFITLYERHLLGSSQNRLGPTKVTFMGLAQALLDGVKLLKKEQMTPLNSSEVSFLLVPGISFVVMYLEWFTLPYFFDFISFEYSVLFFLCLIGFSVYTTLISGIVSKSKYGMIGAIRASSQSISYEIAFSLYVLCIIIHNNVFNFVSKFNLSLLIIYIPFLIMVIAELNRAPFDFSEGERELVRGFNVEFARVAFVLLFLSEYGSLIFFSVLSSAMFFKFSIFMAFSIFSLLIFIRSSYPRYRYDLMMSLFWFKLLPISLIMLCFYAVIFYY
Sequence (Q93873 31-482): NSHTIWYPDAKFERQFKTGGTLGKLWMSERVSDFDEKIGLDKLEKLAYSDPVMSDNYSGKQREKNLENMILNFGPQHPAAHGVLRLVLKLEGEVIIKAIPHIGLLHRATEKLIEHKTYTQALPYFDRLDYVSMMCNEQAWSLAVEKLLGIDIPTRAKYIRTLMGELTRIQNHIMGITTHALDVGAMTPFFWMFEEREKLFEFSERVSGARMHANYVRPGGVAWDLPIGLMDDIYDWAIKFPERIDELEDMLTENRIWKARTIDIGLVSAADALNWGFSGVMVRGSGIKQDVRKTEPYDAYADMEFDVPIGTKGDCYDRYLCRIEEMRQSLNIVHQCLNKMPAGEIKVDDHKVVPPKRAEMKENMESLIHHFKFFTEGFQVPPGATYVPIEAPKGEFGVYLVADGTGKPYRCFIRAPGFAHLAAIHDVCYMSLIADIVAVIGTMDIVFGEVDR
method_summary: biochemical
Assay type: biochemical
condition_details: dose 3 µM; wild-type C. elegans; mean of replicates; read-out: in vitro complex I activity relative to solvent control, Mean
experimental_readout: remaining activity at 3 µM (%)

- COC(=O)Nc1nc2ccc(Sc3ccccc3)cc2[nH]1 [fenbendazole, reference compound]: 108
- Cc1ccccc1OCCCCn1cnc2ccccc21 [Compound 7732524]: 0.645
- Cc1nc2ccccc2n1Cc1ccc(Cl)cc1 [STK697993]: 4.54
- C=C(C)[C@H]1Cc2c(ccc3c2O[C@@H]2COc4cc(OC)c(OC)cc4[C@@H]2C3=O)O1 [Rotenone, reference compound]: 5.32
- CC(C)(C)c1ccc(CCOc2ncnc3ccccc23)cc1 [Fenazaquin, reference compound]: 1.48

Source of measurements: paper PMC11079024
